Target: HLA B*1501 (Homo sapiens, UniProt P01889, A329T/A93T/A95T/C349S/D201E/D98Y/E187L/E204Q/E69M/E70A/K202T/N87E/Q94N/R155S/R180W/S121R/S35A/S48A/V306I/V36M/Y140S/Y91S)
Assay: biochemical
Assay type: binding
Class field: derived from Normalized average relative binding affinity (ARB), HLA B*1501; ranges 1 = under 0.1, 2 = from 0.1 up to 0.4, 3 = 0.4 and over

Exam item: assign XXCXXXXXX [3064.0042] to the correct category. 2

Exam item: assign PXXXXXXXX [3064.0013] to the correct category. 1

Exam item: assign XTXXXXXXX [3064.0037] to the correct category. 2

Exam item: assign SXXXXXXXX [3064.0016] to the correct category. 3

Exam item: assign XXQXXXXXX [3064.0054] to the correct category. 2

Exam item: assign TXXXXXXXX [3064.0017] to the correct category. 2

Exam item: assign XGXXXXXXX [3064.0026] to the correct category. 1

Exam item: assign FXXXXXXXX [3064.0005] to the correct category. 3

###

Provide the recorded Normalized average relative binding affinity (ARB), HLA B*1503 for the entries that follow.
Molecular target: HLA B*1503 (Homo sapiens, UniProt P01889, A329T/A93T/A95T/C349S/D201E/D98Y/E187L/E204Q/K202T/N87E/Q94N/R155S/R180L/S121R/S35A/V306I/V36M/Y140S/Y91S)
Assay: biochemical
Format: binding
Answer using only a numeral; do not append any unit.

Hello, please tell me recorded Normalized average relative binding affinity (ARB), HLA B*1503 for this one: XXQXXXXXX [3064.0054] 0.062

Hello, please tell me recorded Normalized average relative binding affinity (ARB), HLA B*1503 for this one: XXLXXXXXX [3064.0050] 0.043

Hello, please tell me recorded Normalized average relative binding affinity (ARB), HLA B*1503 for this one: XYXXXXXXX [3064.0040] 0.017

Hello, please tell me recorded Normalized average relative binding affinity (ARB), HLA B*1503 for this one: KXXXXXXXX [3064.0009] 0.46

Hello, please tell me recorded Normalized average relative binding affinity (ARB), HLA B*1503 for this one: XXFXXXXXX [3064.0045] 0.62

Hello, please tell me recorded Normalized average relative binding affinity (ARB), HLA B*1503 for this one: XXCXXXXXX [3064.0042] 0.048

Hello, please tell me recorded Normalized average relative binding affinity (ARB), HLA B*1503 for this one: XXAXXXXXX [3064.0041] 0.29

Hello, please tell me recorded Normalized average relative binding affinity (ARB), HLA B*1503 for this one: XDXXXXXXX [3064.0023] 0.0054

Hello, please tell me recorded Normalized average relative binding affinity (ARB), HLA B*1503 for this one: XCXXXXXXX [3064.0022] 0.0028

Hello, please tell me recorded Normalized average relative binding affinity (ARB), HLA B*1503 for this one: PXXXXXXXX [3064.0013] 0.018

Hello, please tell me recorded Normalized average relative binding affinity (ARB), HLA B*1503 for this one: LXXXXXXXX [3064.0010] 0.52

Hello, please tell me recorded Normalized average relative binding affinity (ARB), HLA B*1503 for this one: IXXXXXXXX [3064.0008] 0.51

Hello, please tell me recorded Normalized average relative binding affinity (ARB), HLA B*1503 for this one: XVXXXXXXX [3064.0038] 0.017

Hello, please tell me recorded Normalized average relative binding affinity (ARB), HLA B*1503 for this one: XXHXXXXXX [3064.0047] 0.19

Hello, please tell me recorded Normalized average relative binding affinity (ARB), HLA B*1503 for this one: XXXCXXXXX [3064.0062] 0.34

Hello, please tell me recorded Normalized average relative binding affinity (ARB), HLA B*1503 for this one: XXXDXXXXX [3064.0063] 0.13

###

Provide the recorded Normalized average relative binding affinity (ARB), HLA B*3501 for the entries that follow.
Target: HLA B*3501 (Homo sapiens, UniProt P01889, A329T/A93T/A95T/C349S/D201E/D98Y/E176V/E187L/E204Q/E69T/I218V/K202T/L119I/Q94N/R155S/R180L/S121R/S35A/S48A/T118I/V127L/V306I/V36M/Y140S/Y91F)
Assay type: binding
Answer using only a numeral; do not append any unit.

Hello, please tell me recorded Normalized average relative binding affinity (ARB), HLA B*3501 for this one: XRXXXXXXX [3064.0035] 0.068

Hello, please tell me recorded Normalized average relative binding affinity (ARB), HLA B*3501 for this one: XIXXXXXXX [3064.0028] 0.032

Hello, please tell me recorded Normalized average relative binding affinity (ARB), HLA B*3501 for this one: XKXXXXXXX [3064.0029] 0.0078

Hello, please tell me recorded Normalized average relative binding affinity (ARB), HLA B*3501 for this one: XAXXXXXXX [3064.0021] 0.88

Hello, please tell me recorded Normalized average relative binding affinity (ARB), HLA B*3501 for this one: XXXCXXXXX [3064.0062] 0.089

Hello, please tell me recorded Normalized average relative binding affinity (ARB), HLA B*3501 for this one: XXGXXXXXX [3064.0046] 0.068

Hello, please tell me recorded Normalized average relative binding affinity (ARB), HLA B*3501 for this one: XLXXXXXXX [3064.0030] 0.035

Hello, please tell me recorded Normalized average relative binding affinity (ARB), HLA B*3501 for this one: XFXXXXXXX [3064.0025] 0.012

Hello, please tell me recorded Normalized average relative binding affinity (ARB), HLA B*3501 for this one: SXXXXXXXX [3064.0016] 0.10

Hello, please tell me recorded Normalized average relative binding affinity (ARB), HLA B*3501 for this one: XMXXXXXXX [3064.0031] 0.035

Hello, please tell me recorded Normalized average relative binding affinity (ARB), HLA B*3501 for this one: XXDXXXXXX [3064.0043] 0.11

Hello, please tell me recorded Normalized average relative binding affinity (ARB), HLA B*3501 for this one: XXWXXXXXX [3064.0059] 0.61

Hello, please tell me recorded Normalized average relative binding affinity (ARB), HLA B*3501 for this one: XXTXXXXXX [3064.0057] 0.14

Hello, please tell me recorded Normalized average relative binding affinity (ARB), HLA B*3501 for this one: LXXXXXXXX [3064.0010] 0.31

Hello, please tell me recorded Normalized average relative binding affinity (ARB), HLA B*3501 for this one: XSXXXXXXX [3064.0036] 0.059

Hello, please tell me recorded Normalized average relative binding affinity (ARB), HLA B*3501 for this one: XXVXXXXXX [3064.0058] 0.19

Hello, please tell me recorded Normalized average relative binding affinity (ARB), HLA B*3501 for this one: XXLXXXXXX [3064.0050] 0.43

Hello, please tell me recorded Normalized average relative binding affinity (ARB), HLA B*3501 for this one: XYXXXXXXX [3064.0040] 0.012

Hello, please tell me recorded Normalized average relative binding affinity (ARB), HLA B*3501 for this one: XXSXXXXXX [3064.0056] 0.11

Hello, please tell me recorded Normalized average relative binding affinity (ARB), HLA B*3501 for this one: XXFXXXXXX [3064.0045] 0.49

Hello, please tell me recorded Normalized average relative binding affinity (ARB), HLA B*3501 for this one: HXXXXXXXX [3064.0007] 1.0

Hello, please tell me recorded Normalized average relative binding affinity (ARB), HLA B*3501 for this one: XQXXXXXXX [3064.0034] 0.039

Hello, please tell me recorded Normalized average relative binding affinity (ARB), HLA B*3501 for this one: XDXXXXXXX [3064.0023] 0.018

Hello, please tell me recorded Normalized average relative binding affinity (ARB), HLA B*3501 for this one: XXXDXXXXX [3064.0063] 0.18

Hello, please tell me recorded Normalized average relative binding affinity (ARB), HLA B*3501 for this one: XXXAXXXXX [3064.0061] 0.42

Hello, please tell me recorded Normalized average relative binding affinity (ARB), HLA B*3501 for this one: XXYXXXXXX [3064.0060] 0.29

Hello, please tell me recorded Normalized average relative binding affinity (ARB), HLA B*3501 for this one: XXKXXXXXX [3064.0049] 0.096

Hello, please tell me recorded Normalized average relative binding affinity (ARB), HLA B*3501 for this one: XGXXXXXXX [3064.0026] 0.063

Hello, please tell me recorded Normalized average relative binding affinity (ARB), HLA B*3501 for this one: XXPXXXXXX [3064.0053] 0.089

Hello, please tell me recorded Normalized average relative binding affinity (ARB), HLA B*3501 for this one: XXEXXXXXX [3064.0044] 0.073

Hello, please tell me recorded Normalized average relative binding affinity (ARB), HLA B*3501 for this one: XCXXXXXXX [3064.0022] 0.067

Hello, please tell me recorded Normalized average relative binding affinity (ARB), HLA B*3501 for this one: XXRXXXXXX [3064.0055] 0.074

Hello, please tell me recorded Normalized average relative binding affinity (ARB), HLA B*3501 for this one: XXHXXXXXX [3064.0047] 0.094

Hello, please tell me recorded Normalized average relative binding affinity (ARB), HLA B*3501 for this one: XXNXXXXXX [3064.0052] 0.32

Hello, please tell me recorded Normalized average relative binding affinity (ARB), HLA B*3501 for this one: XXIXXXXXX [3064.0048] 0.16

Hello, please tell me recorded Normalized average relative binding affinity (ARB), HLA B*3501 for this one: XXMXXXXXX [3064.0051] 1.0

Hello, please tell me recorded Normalized average relative binding affinity (ARB), HLA B*3501 for this one: RXXXXXXXX [3064.0015] 0.045

Hello, please tell me recorded Normalized average relative binding affinity (ARB), HLA B*3501 for this one: DXXXXXXXX [3064.0003] 0.11

Hello, please tell me recorded Normalized average relative binding affinity (ARB), HLA B*3501 for this one: XTXXXXXXX [3064.0037] 0.042

Hello, please tell me recorded Normalized average relative binding affinity (ARB), HLA B*3501 for this one: XXCXXXXXX [3064.0042] 0.074

Hello, please tell me recorded Normalized average relative binding affinity (ARB), HLA B*3501 for this one: MXXXXXXXX [3064.0011] 0.90

Hello, please tell me recorded Normalized average relative binding affinity (ARB), HLA B*3501 for this one: CXXXXXXXX [3064.0002] 0.19

Hello, please tell me recorded Normalized average relative binding affinity (ARB), HLA B*3501 for this one: XXQXXXXXX [3064.0054] 0.27

Hello, please tell me recorded Normalized average relative binding affinity (ARB), HLA B*3501 for this one: EXXXXXXXX [3064.0004] 0.085

Hello, please tell me recorded Normalized average relative binding affinity (ARB), HLA B*3501 for this one: XHXXXXXXX [3064.0027] 0.0078

Hello, please tell me recorded Normalized average relative binding affinity (ARB), HLA B*3501 for this one: GXXXXXXXX [3064.0006] 0.030

Hello, please tell me recorded Normalized average relative binding affinity (ARB), HLA B*3501 for this one: XNXXXXXXX [3064.0032] 0.0078

Hello, please tell me recorded Normalized average relative binding affinity (ARB), HLA B*3501 for this one: XPXXXXXXX [3064.0033] 1.0

Hello, please tell me recorded Normalized average relative binding affinity (ARB), HLA B*3501 for this one: XWXXXXXXX [3064.0039] 0.015
